Entry source: patent US20250361210A1

- ASSAY TARGET: human TSHR (Homo sapiens)
- Construct: expressed in transfected cells
- TEST METHOD NOTES: Antagonist activity using TSH-induced cAMP production in human TSHR-stably expressing CHO cells
- Assay type: cell-based
- TEST CONDITIONS: human TSH 50 ng/mL
- Description: Measurement of Antagonist Activity Using TSH-Induced cAMP Production in Human TSHR-Stably Expressing CHO Cells as an Indicator The human TSHR gene sequence (reference number NM_000369.2) was inserted into the multicloning site of pcDNA3.1(+). […] Then, a fluorescence intensity ratio (measurement wavelength 665 nm/620 nm) was measured using a multi-plate reader (PHERAstar FSX, BMG LABTECH, Japan). The fluorescence intensity ratio of each sample was converted to a cAMP content using a standard curve. […]
pIC50: −log10 of the molar value.
ENDPOINT LABEL: pIC50

In the examples that follow, each entry is paired with its recorded pIC50.
{"CHEMICAL STRING": "CN1C(=O)[C@H](NC(N)=O)Cc2ccc(F)c(Oc3ccccc3C(F)(F)F)c21", "pIC50": "5.52 to 6.30"}
{"CHEMICAL STRING": "COc1ccccc1Oc1cccc2c1N(C)C(=O)[C@H](NC(N)=O)C2", "pIC50": "4.52 to 5.52"}
{"CHEMICAL STRING": "CN1C(=O)[C@H](NC(N)=O)Cc2cccc(Oc3ccccc3Cl)c21", "pIC50": "> 6.30"}
{"CHEMICAL STRING": "CN1C(=O)[C@H](NC(N)=O)Cc2ccc(CO)c(Oc3cc(F)ccc3Cl)c21", "pIC50": "> 6.30"}

Proceeding to the next compound to report its pIC50.
Query string: Quote pIC50 reported for COc1cccc(Oc2cccc3c2N(C)C(=O)[C@H](NC(N)=O)C3)c1 please.
Result string: 5.52 to 6.30

---

- ASSAY TARGET: human TSHR (Homo sapiens, UniProt P16473)
- Sequence (P16473 21-764): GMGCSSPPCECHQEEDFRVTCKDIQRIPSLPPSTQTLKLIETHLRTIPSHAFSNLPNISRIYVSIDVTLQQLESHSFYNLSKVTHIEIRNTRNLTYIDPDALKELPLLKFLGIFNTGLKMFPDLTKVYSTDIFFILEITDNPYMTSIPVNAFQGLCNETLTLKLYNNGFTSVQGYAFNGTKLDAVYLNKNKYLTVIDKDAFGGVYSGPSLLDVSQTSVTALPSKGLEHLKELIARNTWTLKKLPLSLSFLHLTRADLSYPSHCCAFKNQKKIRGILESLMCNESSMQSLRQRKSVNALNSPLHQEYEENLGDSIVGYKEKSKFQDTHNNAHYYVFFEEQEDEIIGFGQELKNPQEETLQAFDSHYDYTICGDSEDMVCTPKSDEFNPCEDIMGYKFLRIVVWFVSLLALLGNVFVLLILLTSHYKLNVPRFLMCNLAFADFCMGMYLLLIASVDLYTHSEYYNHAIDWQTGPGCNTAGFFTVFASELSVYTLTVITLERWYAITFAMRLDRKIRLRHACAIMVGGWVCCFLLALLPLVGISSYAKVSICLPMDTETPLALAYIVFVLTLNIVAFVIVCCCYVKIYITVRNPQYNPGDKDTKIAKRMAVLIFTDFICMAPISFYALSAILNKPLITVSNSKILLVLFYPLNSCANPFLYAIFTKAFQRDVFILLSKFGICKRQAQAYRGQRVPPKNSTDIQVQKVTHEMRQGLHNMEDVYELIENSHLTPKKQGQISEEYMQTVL
- TEST METHOD NOTES: Antagonist activity using TSH-induced cAMP production in human TSHR-stably expressing CHO cells
- TEST CONDITIONS: human TSH 50 ng/mL
- Method: Measurement of Antagonist Activity Using TSH-Induced cAMP Production in Human TSHR-Stably Expressing CHO Cells as an Indicator The human TSHR gene sequence (reference number NM_000369.2) was inserted into the multicloning site of pcDNA3.1(+). […] Then, a fluorescence intensity ratio (measurement wavelength 665 nm/620 nm) was measured using a multi-plate reader (PHERAstar FSX, BMG LABTECH, Japan). The fluorescence intensity ratio of each sample was converted to a cAMP content using a standard curve. […]
Recorded IC50, one value per entry.

Solved cases (5 shown):
{"COMPOUND": "CN1C(=O)[C@H](NC(N)=O)Cc2cccc(Oc3cc(F)ccc3C(F)(F)F)c21 [Example 21]", "ENDPOINT LABEL": "IC50", "MEASUREMENT": "< 500 nM"}
{"COMPOUND": "CN1C(=O)[C@H](NC(=O)C2CC2)Cc2cccc(Oc3cc(F)ccc3Cl)c21 [Example 84]", "ENDPOINT LABEL": "IC50", "MEASUREMENT": "< 500 nM"}
{"COMPOUND": "Cc1ccc2c(c1Cc1ccccc1Cl)N(C)C(=O)[C@H](NC(N)=O)C2 [Example 58]", "ENDPOINT LABEL": "IC50", "MEASUREMENT": "< 500 nM"}
{"COMPOUND": "Cc1ccc(F)cc1Oc1cccc2c1N(C)C(=O)[C@H](NC(N)=O)C2 [Example 48]", "ENDPOINT LABEL": "IC50", "MEASUREMENT": "< 500 nM"}
{"COMPOUND": "CN1C(=O)[C@H](NC(N)=O)Cc2ccc(F)c(Cc3ccccc3C(F)(F)F)c21 [Example 61]", "ENDPOINT LABEL": "IC50", "MEASUREMENT": "< 500 nM"}

Query string: Check human TSHR (Homo sapiens, UniProt P16473) data and give IC50 for CN1C(=O)[C@H](NC(N)=O)Cc2ccc(Cl)c(Oc3cc(F)ccc3Cl)c21 [Example 37] .
Result string: < 500 nM

Query string: Please report IC50 with human TSHR (Homo sapiens, UniProt P16473) for item CC(c1ccccc1C(F)(F)F)c1cccc2c1N(C)C(=O)[C@H](NC(N)=O)C2 (some centres unmarked) [Example 78] .
Result string: < 500 nM

Query string: Write down the reported IC50 (system: human TSHR (Homo sapiens, UniProt P16473)) of Cc1ccc2c(c1Oc1ccccc1Cl)N(C)C(=O)[C@H](NC(N)=O)C2 [Example 31]
Result string: < 500 nM

Query string: # return IC50 of Cc1ccc2c(c1Cc1cc(F)ccc1Cl)N(C)C(=O)[C@H](NC(N)=O)C2 [Example 59] (system: human TSHR (Homo sapiens, UniProt P16473))
Result string: < 500 nM

Query string: Give IC50 for this entry on human TSHR (Homo sapiens, UniProt P16473): CN1C(=O)[C@H](NC(N)=O)Cc2cccc(Oc3ccccc3C(F)F)c21 [Example 18]
Result string: < 500 nM

Query string: Provide IC50, recorded with human TSHR (Homo sapiens, UniProt P16473), of CN1C(=O)[C@H](NC(N)=O)Cc2cccc(Cc3ccccc3Cl)c21 [Example 51]
Result string: < 500 nM

Query string: Tell me IC50 of Cc1ccc(F)cc1Cc1cccc2c1N(C)C(=O)[C@H](NC(N)=O)C2 [Example 68] when tested on human TSHR (Homo sapiens, UniProt P16473).
Result string: < 500 nM

Query string: Provide human TSHR (Homo sapiens, UniProt P16473) IC50 reading for CN1C(=O)[C@H](NC(N)=O)Cc2ccc(C(F)(F)F)c(Oc3cc(F)ccc3Cl)c21 [Example 74] .
Result string: < 500 nM

Query string: State recorded IC50 with human TSHR (Homo sapiens, UniProt P16473), entry CN1C(=O)[C@H](NC(N)=O)Cc2ccc(F)c(Oc3ccccc3C(F)F)c21 [Example 43] , no comment.
Result string: 500 to 3000 nM

---

- ASSAY TARGET: human TSHR (Homo sapiens)
- TEST METHOD NOTES: Antagonist activity using TSH-induced cAMP production in human TSHR-stably expressing CHO cells
- TEST CONDITIONS: human TSH 50 ng/mL
ENDPOINT LABEL: IC50

Consider the following illustrative entries.
{"MOLECULE": "Cc1ccccc1Oc1cccc2c1N(C)C(=O)[C@H](NC(N)=O)C2", "IC50": "< 500 nM"}
{"MOLECULE": "CN1C(=O)[C@H](NC(N)=O)Cc2cccc(Oc3ccc(F)cc3Cl)c21", "IC50": "< 500 nM"}
{"MOLECULE": "CC(=O)N[C@@H]1Cc2ccc(C)c(Oc3cc(F)ccc3Cl)c2N(C)C1=O", "IC50": "< 500 nM"}
{"MOLECULE": "CN1C(=O)[C@H](NC(N)=O)Cc2ccc(Cl)c(Oc3ccccc3Cl)c21", "IC50": "< 500 nM"}
{"MOLECULE": "Cc1ccccc1Cc1c(F)ccc2c1N(C)C(=O)[C@H](NC(N)=O)C2", "IC50": "< 500 nM"}

Query string: # return IC50 of CN1C(=O)C(NC(N)=O)Cc2ccc(F)c(Oc3ccccc3)c21 (stereo not drawn) (system: human TSHR (Homo sapiens))
Result string: 500 to 3000 nM

Query string: Report its IC50 with human TSHR (Homo sapiens) as the test system: CN1C(=O)[C@H](NC(N)=O)Cc2ccc(OCc3ccccc3)c(Oc3ccccc3Cl)c21
Result string: 3000 to 30000 nM

Query string: Provide the reported IC50 (system: human TSHR (Homo sapiens)) for CN1C(=O)[C@H](NC(N)=O)Cc2cccc(OC3CCCCC3)c21
Result string: 500 to 3000 nM

Query string: Name the recorded IC50 of CCc1cccc(Oc2cccc3c2N(C)C(=O)[C@H](NC(N)=O)C3)c1 , assay system human TSHR (Homo sapiens).
Result string: 500 to 3000 nM

---

- ASSAY TARGET: human TSHR (Homo sapiens, UniProt P16473)
- TEST METHOD NOTES: Antagonist activity using TSH-induced cAMP production in human TSHR-stably expressing CHO cells
- TEST CONDITIONS: human TSH 50 ng/mL
pIC50: −log10 of the molar value.
ENDPOINT LABEL: pIC50

Worked cases, answers included:
{"MOLECULE": "CN1C(=O)[C@H](NC(N)=O)Cc2ccc(Cl)c(Cc3ccccc3F)c21", "ASSAY TARGET": "human TSHR (Homo sapiens, UniProt P16473)", "pIC50": "5.52 to 6.30"}
{"MOLECULE": "CN1C(=O)[C@H](NC(N)=O)Cc2cccc(Oc3cc(F)c(F)cc3Cl)c21", "ASSAY TARGET": "human TSHR (Homo sapiens, UniProt P16473)", "pIC50": "> 6.30"}
{"MOLECULE": "CN1C(=O)[C@H](NC(N)=O)Cc2cccc(Oc3cc(F)ccc3Cl)c21", "ASSAY TARGET": "human TSHR (Homo sapiens, UniProt P16473)", "pIC50": "> 6.30"}
{"MOLECULE": "Cc1ccc2c(c1Oc1ccccc1F)N(C)C(=O)[C@H](NC(N)=O)C2", "ASSAY TARGET": "human TSHR (Homo sapiens, UniProt P16473)", "pIC50": "> 6.30"}
{"MOLECULE": "CN1C(=O)C(NC(N)=O)Cc2cccc(Oc3ccccc3)c21 (stereo not drawn)", "ASSAY TARGET": "human TSHR (Homo sapiens, UniProt P16473)", "pIC50": "5.52 to 6.30"}
{"MOLECULE": "Cc1ccc2c(c1Cc1cccc(F)c1)N(C)C(=O)[C@H](NC(N)=O)C2", "ASSAY TARGET": "human TSHR (Homo sapiens, UniProt P16473)", "pIC50": "4.52 to 5.52"}
{"MOLECULE": "CN1C(=O)[C@H](NC(N)=O)Cc2ccc(C(F)F)c(Oc3cc(F)ccc3Cl)c21", "ASSAY TARGET": "human TSHR (Homo sapiens, UniProt P16473)", "pIC50": "> 6.30"}
{"MOLECULE": "CNC(=O)N[C@@H]1Cc2ccc(C)c(Oc3cc(F)ccc3Cl)c2N(C)C1=O", "ASSAY TARGET": "human TSHR (Homo sapiens, UniProt P16473)", "pIC50": "> 6.30"}

Please turn your attention to the following entry.
Query string: For the molecule CN1C(=O)C(NC(N)=O)Cc2ccc(Cl)c(Oc3ccccc3)c21 (stereo not drawn) , report pIC50.
Result string: 5.52 to 6.30
